The values you see were collected from ChEMBL document CHEMBL1201862.

- Tested on: MDA-N
- Test Protocol: NCI tumour cell line growth inhibition, 48 h
The source made the active and inactive calls. No stated cut-off is given here; in the data, active = GI50 up to about 1.1 µM and inactive = higher.
Quick reference for GI50 among some compounds

Here's what some known entries look like.
| Compound | System Under Test | GI50 |
| --- | --- | --- |
| COc1ccc(/C=C2\C[C@H]3[C@@H]4CCC5=C/C(=N/O)CC[C@]5(C)[C@H]4CC[C@]3(C)\C2=N\O)cc1 | MDA-N | 15.6 µM (inactive) |
| CCOC(=O)C1=C(C(=O)OCC)SC2(S1)C(C(=O)OCC)=C(C(=O)OCC)Sc1c2ssc1=O | MDA-N | 1.97 µM (inactive) |
| CCOC(=O)C1=C(N2CCCC2)C(=O)C(C(=O)OCC)C1 (centres undefined) | MDA-N | > 100 µM (inactive) |
| Cc1nc(O)nc(N/N=C/c2c3ccccc3c(Cl)c3ccccc23)c1C(=O)Nc1ccc(Cl)cc1 | MDA-N | > 100 µM (inactive) |
| CC1=N[C@](C)(C2CC3C=CC2C3=O)COC1=O (some centres undefined) | MDA-N | > 100 µM (inactive) |
| O=C(N/N=C/c1ccccc1)c1c(F)c(F)c(F)c(F)c1F | MDA-N | 28.8 µM (inactive) |
| c1ccc2cc(CN3CCC(C4CCN(Cc5ccc6ccccc6c5)CC4)CC3)ccc2c1 | MDA-N | 1.96 µM (inactive) |
| COc1cc(/C=C2\C(=O)N(c3cccc(NC(C)=O)c3)C(c3ccccc3)S2(=O)=O)cc(OC)c1OC (centres undefined) | MDA-N | 40.4 µM (inactive) |

Input line: Please look up its GI50: `CSc1nc(Cl)c2c(n1)Sc1nc3ccccc3n1N=C2`
Output line: 22 µM (inactive)
